Catalogue of IC50 values
- target: recombinant human NF-kappaB-inducing kinase (NIK/MAP3K14) (Homo sapiens)
- Sequence (Q99558 whole entry): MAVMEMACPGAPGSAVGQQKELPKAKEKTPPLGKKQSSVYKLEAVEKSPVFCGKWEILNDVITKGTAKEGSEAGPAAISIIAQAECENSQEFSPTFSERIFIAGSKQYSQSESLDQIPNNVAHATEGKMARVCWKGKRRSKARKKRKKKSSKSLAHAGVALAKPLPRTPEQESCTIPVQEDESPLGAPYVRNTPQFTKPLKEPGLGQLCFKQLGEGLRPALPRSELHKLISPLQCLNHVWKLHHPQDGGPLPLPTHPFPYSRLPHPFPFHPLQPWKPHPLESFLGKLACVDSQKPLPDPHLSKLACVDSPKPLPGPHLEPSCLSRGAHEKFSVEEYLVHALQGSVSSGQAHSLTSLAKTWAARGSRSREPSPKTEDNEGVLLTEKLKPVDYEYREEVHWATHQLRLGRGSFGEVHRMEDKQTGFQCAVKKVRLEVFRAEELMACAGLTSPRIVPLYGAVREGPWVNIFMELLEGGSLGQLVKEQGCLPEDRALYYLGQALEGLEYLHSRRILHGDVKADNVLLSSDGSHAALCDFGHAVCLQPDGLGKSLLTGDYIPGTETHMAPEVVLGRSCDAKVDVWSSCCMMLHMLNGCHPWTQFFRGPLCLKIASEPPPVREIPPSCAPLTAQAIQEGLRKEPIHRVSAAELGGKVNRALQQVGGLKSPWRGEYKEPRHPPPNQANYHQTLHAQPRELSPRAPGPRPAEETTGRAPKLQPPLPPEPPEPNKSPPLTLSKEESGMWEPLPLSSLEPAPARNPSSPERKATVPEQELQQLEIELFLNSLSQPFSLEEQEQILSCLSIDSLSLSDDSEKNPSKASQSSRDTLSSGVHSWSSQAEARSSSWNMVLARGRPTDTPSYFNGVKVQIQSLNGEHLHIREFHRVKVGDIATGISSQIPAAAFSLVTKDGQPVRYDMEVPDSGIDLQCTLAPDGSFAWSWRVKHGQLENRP
- experiment-summary: Biological Assay A: inhibition of recombinant human NF-kappaB-inducing kinase (NIK/MAP3K14) activity (MBP phosphorylation, Mesoscale)
- condition-summary: MSD MBP; averaged over all measurements on all batches; read-out: Assay A Biochemical (MSD MBP) IC50
Your answer is read as µM, so omit the unit and give the number.

Worked set:
compound | IC50 / µM
COc1c(Nc2nccc(-c3cnc4c(c3)C(C)(C)CN4)n2)cccc1C(=O)N1CCOCC1 | 0.417
CN1CCC(NC(=O)c2ccc(Nc3nccc(-c4cnc5c(c4)C(C)(C)CN5)n3)c(Cl)c2)CC1 | 0.155
CC(=O)NCc1ccc(Nc2nccc(-c3cnc4c(c3)C(C)(C)CN4)n2)c(C(F)(F)F)c1 | 0.0457
Cc1cc(C(=O)N2CCC(C#N)CC2)ccc1Nc1nccc(-c2cnc3c(c2)C(C)(C)CN3)n1 | 0.0074
Cc1cc(C#N)ccc1Nc1nccc(-c2cnc3c(c2)C(C)(C)CN3)n1 | 0.457
COc1cc(Nc2nccc(-c3cnc4c(c3)C(C)(C)CN4)n2)c(C)c(C(=O)NC2CCOCC2)c1 | 0.0302
COc1cc(C#N)ccc1Nc1nccc(-c2cnc3c(c2)C(C)(C)CN3)n1 | 0.309
Cc1cc(C(=O)N2CCC(C(C)(C)O)CC2)ccc1Nc1nccc(-c2cnc3c(c2)C(C)(C)CN3)n1 | 0.0135
COc1cc(C(=O)NC2CCOCC2)ccc1Nc1nccc(-c2cnc3c(c2)C(C)(C)CN3)n1 | 0.0074
CC1(C)CNc2ncc(-c3ccnc(Nc4ccc(C(=O)N5CCC(C#N)CC5)cc4OC(F)F)n3)cc21 | 0.0079

// query Any idea what its IC50 is? The compound is CC(=O)NCc1ccc(Nc2nccc(-c3cnc4c(c3)C(C)(C)CN4)n2)c(OC(F)(F)F)c1
// result 0.0562

// query And then CC(=O)NCc1ccc(Nc2nccc(-c3cnc4c(c3)C(C)(C)CN4)n2)c(Cl)c1 , what is it?
// result 0.0065

// query And then COc1cc(Nc2nccc(-c3cnc4c(c3)C(C)(C)CN4)n2)c(C)c(C(=O)N2CCC(O)CC2)c1 , what is it?
// result 0.0135

// query And then COc1cc(Nc2nccc(-c3cnc4c(c3)C(C)(CO)CN4)n2)cc(OC)c1OC (centres unmarked) , what is it?
// result 0.0033

// query And then COCC(=O)NCc1ccc(Nc2nccc(-c3cnc4c(c3)C(C)(C)CN4)n2)c(C)c1 , what is it?
// result 0.0135

// query And then CC(=O)NCc1ccc(Nc2nccc(-c3cnc4c(c3)C(C)(C)CN4)n2)c(Br)c1 , what is it?
// result 0.0083

// query And then COc1c(Nc2nccc(-c3cnc4c(c3)C(C)(C)CN4)n2)cccc1C(=O)NC1CCOCC1 , what is it?
// result 0.288

// query And then Cc1cc(C(=O)N2CCN(C)CC2)ccc1Nc1nccc(-c2cnc3c(c2)C(C)(C)CN3)n1 , what is it?
// result 0.0148

// query And then COC1CCN(C(=O)c2ccc(Nc3nccc(-c4cnc5c(c4)C(C)(CO)CN5)n3)c(C)c2)CC1 (centres unmarked) [Compound 133] , what is it?
// result 0.0058

====

- target: recombinant human NF-kappaB-inducing kinase (NIK/MAP3K14) (Homo sapiens)
- experiment-summary: Biological Assay B: inhibition of auto-phosphorylation of recombinant human NIK/MAP3K14 (AlphaScreen), performed at 2 locations
- Type: biochemical
- condition-summary: location 1; AlphaScreen auto-phosphorylation; averaged values; read-out: Assay B location 1 IC50
reported-metric: IC50

Worked set:
molecule | target | IC50
COc1cc(N2CCOCC2)c(Cl)cc1Nc1nccc(-c2cnc3c(c2)C(C)(CO)CN3)n1 (single isomer, unassigned) [Compound 6R] | recombinant human NF-kappaB-inducing kinase (NIK/MAP3K14) (Homo sapiens) | 0.0191 µM
COc1cccc(Cl)c1Nc1nccc(-c2cnc3c(c2)C(C)(CO)CN3)n1 (stereo not drawn) | recombinant human NF-kappaB-inducing kinase (NIK/MAP3K14) (Homo sapiens) | > 10 µM

Now turn to the next molecule.
// query Any idea what its IC50 is? The molecule is Cc1cc(C(=O)O)ccc1Nc1nccc(-c2cnc3c(c2)C(C)(C)CN3)n1
// result > 10 µM

Sourced from patent US11236084B2
